We begin with IC50 values for PIK3CG (human) (UniProt P48736), as collected from the published literature.

Item: `C[C@H](Nc1ncnc2[nH]cnc12)c1cc2scc(C(F)(F)F)c2c(=O)n1-c1ccccc1` | IC50: 1 to 10 µM

Item: `C[C@H](NC(=O)c1c(N)nn2ccc(-c3cccc(S(C)(=O)=O)c3)nc12)c1cc2cccc(Cl)c2c(=O)n1-c1ccccc1` | IC50: < 0.1 µM

Item: `Cc1cccc2cc([C@H](C)Nc3ncnc4[nH]cnc34)nc(OCCN3CCCC3)c12` | IC50: > 10 µM
